- system_name: GST-tagged recombinant full-length human Pim-2 (Homo sapiens, UniProt Q9P1W9)
- Construct: GST-tagged recombinant full-length human Pim-2; GST
- Sequence (Q9P1W9 whole entry): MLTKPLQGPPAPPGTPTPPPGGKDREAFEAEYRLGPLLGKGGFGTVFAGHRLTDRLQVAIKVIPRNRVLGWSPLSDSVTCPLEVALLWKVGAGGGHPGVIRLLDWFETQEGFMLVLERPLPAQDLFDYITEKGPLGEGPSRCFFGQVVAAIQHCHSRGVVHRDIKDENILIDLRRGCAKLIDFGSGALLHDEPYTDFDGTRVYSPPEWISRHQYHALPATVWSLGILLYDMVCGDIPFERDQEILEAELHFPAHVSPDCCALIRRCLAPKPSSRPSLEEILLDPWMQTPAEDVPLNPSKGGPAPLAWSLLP
- assay_name: PIM-2 Assay (as Example A)
- condition_context: averaged IC50; 4 μM ATP, 1.0 μM PIM2tide, 1.5 nM Pim-2
Counter-ions that a name gives are not always drawn.
attribute_measured: IC50 (µM)
Write the answer as a number in µM, unit excluded.

Please review the entries below; each comes with its answer.
>  <molecule>
COC[C@@H](C)Oc1ccc2ccc(-c3nnc4ccc([C@H](N5CC[C@](C)(N)C5)C(F)(F)F)cn34)nc2c1

>  <IC50 [µM]>
0.0257

$$$$
>  <molecule>
C[C@@H](O)COc1cccc2ccc(-c3nnc4ccc([C@@H](N5CC[C@H](N)C5)C(F)(F)F)cn34)nc12

>  <IC50 [µM]>
0.194

$$$$

*Q* I'd like to know its IC50. The molecule in question is N[C@@H]1[C@H]2CN(C(c3ccc4nnc(-c5ccc6cccc(OCC7CC7)c6n5)n4c3)C(F)(F)F)C[C@@H]12 (stereo partly drawn) [Example 26, dihydrochloride]
*A* 0.796

---

# IC50 per record follows
- system_name: GST-tagged recombinant full-length human Pim-2 (Homo sapiens, UniProt Q9P1W9)
- Construct: GST-tagged recombinant full-length human Pim-2; GST
- assay_name: PIM-2 Assay (as Example A)
- Format: biochemical
- condition_context: averaged IC50; 4 μM ATP, 1.0 μM PIM2tide, 1.5 nM Pim-2
Where a name gives a salt, the structure may show the parent alone.
Give your result in µM as a bare value.

*Q* Can you share its IC50? I mean this compound: CCC(C)(C)C(=O)OCCOc1cc2nc(-c3nnc4ccc([C@@H](N5CC[C@H](N)C5)C(F)(F)F)cn34)ccc2cc1F
*A* 0.459

*Q* Entry under review: CC(C)(O)COc1ccc2ccc(-c3nnc4ccc([C@H](N5CC[C@](C)(N)C5)C(F)(F)F)cn34)nc2c1 [Example 297, dihydrochloride] . Reported IC50?
*A* 0.02

*Q* Could you tell me which IC50 is on file for FC(F)(F)[C@@H](c1ccc2nnc(-c3ccc4cccc(C5CC5)c4n3)n2c1)N1C[C@@H]2C[C@H]1CN2 [Example 65, dihydrochloride] ?
*A* 0.018

*Q* Report IC50 for CCOc1cc2nc(-c3nnc4ccc([C@H](N5CC[C@H](N)C5)C(F)(F)F)cn34)ccc2cc1F [Example 249, dihydrochloride] please.
*A* 0.083

*Q* Would you mind telling me what IC50 value was observed for CC(C)(O)Cc1cc2nc(-c3nnc4ccc([C@H](N5CC[C@H](N)C5)C(F)(F)F)cn34)ccc2cc1F [Example 237, dihydrochloride] ?
*A* 0.211

*Q* Can you share its IC50? I mean this compound: COC[C@@H](C)Oc1cccc2ccc(-c3nnc4ccc([C@@H](N5CC[C@H](N)C5)C(F)(F)F)cn34)nc12 [Example 140, dihydrochloride]
*A* 0.054

*Q* Data request, read-out IC50, for CN[C@H]1CCN([C@H](c2ccc3nnc(-c4ccc5cccc(OC(C)C)c5n4)n3c2)C(F)(F)F)C1 [Example 36, dihydrochloride]
*A* 0.032

*Q* For N[C@H]1CCN([C@H](c2ccc3nnc(-c4ccc5cc(F)c(O)cc5n4)n3c2)C(F)(F)F)C1 [Example 157, hydrochloride] , what is its reported IC50?
*A* 0.239

*Q* Can you look up the measured IC50 of CCc1cccc2ccc(-c3nnc4ccc([C@@H](N5C[C@@H]6C[C@H]5CN6)C(F)(F)F)cn34)nc12 [Example 66, dihydrochloride] for me?
*A* 0.014
